test: chemical genetic growth profiling, strain panel (AID 1159580);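 also: tested at 20 µM; growth read once vehicle control cultures reached saturation at 30 °C; 1 = growth at the plate median or of vehicle wells; lower values mean less growth of the strain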; conditions: S. cerevisiae deletion strains, growth OD, locus YDR318W, strain mcm21, stronger effect = lower value
Among all 5,500 compounds or so, about 2,000 (36%) were called active. Roughly 18% stayed inconclusive and do not appear here. The list shows a part of the results.
# normalized growth per entry
value kind: normalized growth

INSERT INTO measurements (compound, val) VALUES
  ('CC[C@@]1(O)C[C@H](O[C@H]2C[C@H](N(C)C)[C@H](O)[C@H](C)O2)c2c(cc3c(c2O)C(=O)c2c(O)ccc(O)c2C3=O)[C@H]1C(=O)OC', '0.125 (active)'),
  ('COc1cc([C@@H]2c3cc4c(cc3C(OC3O[C@@H]5COC(C)O[C@H]5[C@H](O)[C@H]3O)C3COC(=O)[C@@H]32)OCO4)cc(OC)c1O (some centres undefined)', '1.01 (inactive)'),
  ('CC(=O)Oc1cc(OC(C)=O)c2c(c1)O[C@H](c1ccc(OC(C)=O)c(OC(C)=O)c1)[C@H](OC(C)=O)C2', '1.03 (inactive)'),
  ('COc1ccc([C@H]2Oc3c(I)c(OC)cc(OC)c3C[C@@H]2O)cc1OC', '1.02 (inactive)'),
  ('CC(C)NCC(O)COc1cccc2[nH]ccc12 (centres undefined)', '0.977 (inactive)'),
  ('NC(=O)c1ccc[n+]([C@@H]2O[C@H](COP(=O)([O-])OP(=O)(O)OC[C@H]3O[C@@H](n4cnc5c(N)ncnc54)[C@H](OP(=O)(O)O)[C@@H]3O)[C@@H](O)[C@H]2O)c1', '1.01 (inactive)'),
  ('COc1ccc(C(CN(C)C)C2(O)CCCCC2)cc1 (centres undefined)', '0.996 (inactive)'),
  ('COc1cc(OC)c2c(c1)O[C@H](c1cc(OC)c(OC)c(OC)c1)[C@H](OC(=O)c1cc(OC)c(OC)c(OC)c1)C2', '0.997 (inactive)'),
  ('C[C@@H]1O[C@@H](O[C@H]2[C@H](Oc3cc(O)c4c(=O)cc(-c5ccc(O)cc5)oc4c3)O[C@H](CO)[C@@H](O)[C@@H]2O)[C@H](O)[C@H](O)[C@H]1O', '1 (inactive)'),
  ('O=C(Oc1cc(O)cc2c1C[C@@H](OC(=O)c1cc(O)c(O)c(O)c1)[C@@H](c1cc(O)c(O)c(O)c1)O2)c1cc(O)c(O)c(O)c1', '0.736 (active)'),
  ('O=C(O)c1cc2cc(F)ccc2[nH]1', '1.02 (inactive)'),
  ('Oc1cc(O)c2c(c1)O[C@H](c1ccc(O)c(O)c1)[C@@H](O)C2', '0.981 (inactive)'),
  ('O=C(Oc1cc(OC(=O)c2ccccc2)c2c(c1)O[C@H](c1ccc(OC(=O)c3ccccc3)c(OC(=O)c3ccccc3)c1)[C@@H](OC(=O)c1ccccc1)C2)c1ccccc1', '1.04 (inactive)'),
  ('CN1CCC(OC(c2ccccc2)c2ccccc2)CC1', '0.978 (inactive)'),
  ('COc1ccc2c(c1)OC1(O)COc3cc(OC)c(OC)cc3C1=C2 (centres undefined)', '0.949 (inactive)'),
  ('Clc1ccc(C(OCCN2CCCCC2)c2ccccc2)cc1 (centres undefined)', '0.983 (inactive)'),
  ('CCn1cc(C(=O)O)c(=O)c2cc(F)c(N3CCNC(C)C3)c(F)c21 (centres undefined)', '0.976 (inactive)'),
  ('CNC(=O)O/N=C(\C)SC', '0.994 (inactive)'),
  ('COc1ccc(OC)c(C(O)CNC(=O)CN)c1 (centres undefined)', '0.982 (inactive)');
